Molecular target: Human immunodeficiency virus type 1 protease (Human immunodeficiency virus 1, UniProt Q72874)
readout name: IC50 (nM)
Please state the figure in nM; there is no need to write the unit.

(Q) Request the reported IC50 associated with CC1(C)S[C@H]([C@H](NC(=O)Cc2ccccc2)C(=O)NCc2ccccc2)N[C@H]1C(=O)NCCCCNC(=O)[C@@H]1N[C@@H]([C@H](NC(=O)Cc2ccccc2)C(=O)NCc2ccccc2)SC1(C)C
(A) 530

(Q) Request the reported IC50 associated with CCCNC(=O)[C@@H](NC(=O)Cc1ccccc1)[C@@H]1N[C@@H](C(=O)N(C)CCN(C)C(=O)[C@@H]2N[C@@H]([C@H](NC(=O)Cc3ccccc3)C(=O)NCC)SC2(C)C)C(C)(C)S1
(A) 11

(Q) Request the reported IC50 associated with CC1(C)S[C@H]([C@H](NC(=O)Cc2ccccc2)C(=O)NCc2ccccc2)N[C@H]1C(=O)NC[C@@H](O)[C@@H](O)CNC(=O)[C@@H]1N[C@@H]([C@H](NC(=O)Cc2ccccc2)C(=O)NCc2ccccc2)SC1(C)C
(A) 14
